TESTED_TARGET: MMP2 (Homo sapiens)
Sequence (P08253 110-660): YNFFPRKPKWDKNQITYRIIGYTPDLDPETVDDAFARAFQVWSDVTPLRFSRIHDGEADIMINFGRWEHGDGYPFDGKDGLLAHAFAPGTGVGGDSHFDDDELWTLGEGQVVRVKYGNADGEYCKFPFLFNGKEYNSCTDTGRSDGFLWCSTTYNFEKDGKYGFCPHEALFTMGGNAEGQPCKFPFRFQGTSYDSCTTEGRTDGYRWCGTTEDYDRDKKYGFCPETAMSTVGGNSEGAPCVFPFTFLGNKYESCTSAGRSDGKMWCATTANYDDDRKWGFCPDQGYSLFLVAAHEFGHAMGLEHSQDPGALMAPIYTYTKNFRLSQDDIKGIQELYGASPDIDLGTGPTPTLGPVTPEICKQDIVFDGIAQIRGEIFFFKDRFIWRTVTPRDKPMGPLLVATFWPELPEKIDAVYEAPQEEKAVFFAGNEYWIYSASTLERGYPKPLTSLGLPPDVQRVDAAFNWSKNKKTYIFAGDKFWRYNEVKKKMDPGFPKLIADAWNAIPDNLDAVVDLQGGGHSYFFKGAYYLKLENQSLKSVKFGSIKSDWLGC
EXPERIMENT_NOTES: Inhibitory effects on human MMP2 (Method 1), enzyme assay with MOCAc-Pro-Leu-Gly-Leu-A2pr(Dnp)-Ala-Arg-NH2 substrate, 96-well
Format: biochemical
TEST_CONDITIONS: Test Example No. 1-1 (Method 1, 96-well); read-out: Human MMP2, IC50
Where a SMILES comes first, the peptide text is derived from it. Bridges are numbered along the chain shown (N, C = ends). [ ]: non-standard residue; d: D form. The star is where a group is joined. Benzenesulfonyl(4-OPh) = O=S(=O)(c1ccc(Oc2ccccc2)cc1)*; NMeI = CC[C@H](C)[C@H](NC)C(=O)O; β3hP = O=C(O)C[C@@H]1CCCN1; Dab = NCC[C@H](N)C(=O)O; GABA = NCCCC(=O)O; βAla = NCCC(=O)O
ENDPOINT_NAME: pIC50
FYI, pIC50 means -log10 of a concentration in mol per litre.

Look up pIC50 with MMP2 (Homo sapiens) for this compound: CC[C@H](C)[C@@H](C(=O)N1CCC[C@H]1CC(N)=O)N(C)C(=O)[C@@H]1CCCCNC(=O)CCNC(=O)CC[C@H](NC(=O)CCCNS(=O)(=O)c2ccc(Oc3ccccc3)cc2)C(=O)N[C@@H](CC(=O)O)C(=O)N[C@@H](CCN)C(=O)N1 [Compound 894] ({Benzenesulfonyl(4-OPh)-GABA}-ED[Dab]K[NMeI][β3hP]-NH2; linker 1-4 via βAla (inferred); N-terminus assumed) 8.96

Test system MMP2 (Homo sapiens); read-out pIC50; what value for CC[C@H](C)[C@@H](C(=O)N1CCC[C@H]1CC(N)=O)N(C)C(=O)[C@@H]1CCCCNC(=O)CNC(=O)CC[C@H](NC(=O)CCCNS(=O)(=O)c2ccc(Oc3ccccc3)cc2)C(=O)N[C@@H](CC(=O)O)C(=O)N[C@@H](C)C(=O)N1 [Compound 892] ({Benzenesulfonyl(4-OPh)-GABA}-EDAK[NMeI][β3hP]-NH2; linker 1-4 via G) ? 8.77
